- System: Chinese hamster lung (CHL/IU) cells
- MEASUREMENT PROTOCOL: Effect of inducing chromosomal aberration
- Type: cell-based
- RUN CONDITIONS: 50 μg/mL, 24 hours, CHL/IU cells
EXPERIMENTAL READOUT: Percentile induction of structural aberration (TA %)
Please respond with the number in % and leave the unit unwritten.

[[record]]
mol = "CC[C@H]1CN(c2c(F)cc3c(=O)c(C(=O)O)cn([C@@H]4C[C@@H]4F)c3c2OC)C[C@H]1N"
recorded_measurement = 2

[[record]]
mol = "CC[C@H]1CN(c2c(F)cc3c(=O)c(C(=O)O)cn4c3c2OC[C@@H]4C)C[C@H]1N"
recorded_measurement = 5


Field: next molecule
Could you share which Percentile induction of structural aberration (TA %) value was measured for CC[C@H]1CN(c2c(F)cc3c(=O)c(C(=O)O)cn([C@@H]4C[C@@H]4F)c3c2C)C[C@H]1N ?
3

---

Listed compounds paired with reported MIC
- Test system: S. aureus FDA 209P
- MEASUREMENT PROTOCOL: Antibacterial activity (MIC), standard method of the Japan Society of Chemotherapy
- Assay type: cell-based
- RUN CONDITIONS: Staphylococcus aureus, FDA209P; S. aureus FDA 209P; read-out: MIC
Please respond with the number in ng/mL and leave the unit unwritten.

[[record]]
mol = "COc1c(N2C[C@@H](N)[C@@H](C3CC3)C2)c(F)cc2c(=O)c(C(=O)O)cn([C@@H]3C[C@@H]3F)c12"
experimental_readout = "MIC"
recorded_measurement = 12

[[record]]
mol = "CC[C@H]1CN(c2c(F)cc3c(=O)c(C(=O)O)cn([C@@H]4C[C@@H]4F)c3c2OC)C[C@H]1N"
experimental_readout = "MIC"
recorded_measurement = 6

[[record]]
mol = "Cc1c(N2C[C@@H](N)[C@@H](C(C)C)C2)c(F)cc2c(=O)c(C(=O)O)cn([C@@H]3C[C@@H]3F)c12"
experimental_readout = "MIC"
recorded_measurement = 6

[[record]]
mol = "CC[C@H]1CN(c2c(F)cc3c(=O)c(C(=O)O)cn4c3c2OC[C@@H]4C)C[C@H]1N"
experimental_readout = "MIC"
recorded_measurement = 12


Field: next compound
Could you share which MIC value was measured for CC[C@H]1CN(c2c(F)cc3c(=O)c(C(=O)O)cn([C@@H]4C[C@@H]4F)c3c2C)C[C@H]1N ?
6
